# Experimental Target: F508delCFTR (Homo sapiens, UniProt P13569, DEL508-508)
# Construct: expressed in transfected cells; host or cells: CFBE41o- human lung-derived epithelial cells (CFBE4lo-F508delCFTR-HRP), doxycycline-inducible
# Sequence (P13569 with tags, fused parts or gaps DEL508-508): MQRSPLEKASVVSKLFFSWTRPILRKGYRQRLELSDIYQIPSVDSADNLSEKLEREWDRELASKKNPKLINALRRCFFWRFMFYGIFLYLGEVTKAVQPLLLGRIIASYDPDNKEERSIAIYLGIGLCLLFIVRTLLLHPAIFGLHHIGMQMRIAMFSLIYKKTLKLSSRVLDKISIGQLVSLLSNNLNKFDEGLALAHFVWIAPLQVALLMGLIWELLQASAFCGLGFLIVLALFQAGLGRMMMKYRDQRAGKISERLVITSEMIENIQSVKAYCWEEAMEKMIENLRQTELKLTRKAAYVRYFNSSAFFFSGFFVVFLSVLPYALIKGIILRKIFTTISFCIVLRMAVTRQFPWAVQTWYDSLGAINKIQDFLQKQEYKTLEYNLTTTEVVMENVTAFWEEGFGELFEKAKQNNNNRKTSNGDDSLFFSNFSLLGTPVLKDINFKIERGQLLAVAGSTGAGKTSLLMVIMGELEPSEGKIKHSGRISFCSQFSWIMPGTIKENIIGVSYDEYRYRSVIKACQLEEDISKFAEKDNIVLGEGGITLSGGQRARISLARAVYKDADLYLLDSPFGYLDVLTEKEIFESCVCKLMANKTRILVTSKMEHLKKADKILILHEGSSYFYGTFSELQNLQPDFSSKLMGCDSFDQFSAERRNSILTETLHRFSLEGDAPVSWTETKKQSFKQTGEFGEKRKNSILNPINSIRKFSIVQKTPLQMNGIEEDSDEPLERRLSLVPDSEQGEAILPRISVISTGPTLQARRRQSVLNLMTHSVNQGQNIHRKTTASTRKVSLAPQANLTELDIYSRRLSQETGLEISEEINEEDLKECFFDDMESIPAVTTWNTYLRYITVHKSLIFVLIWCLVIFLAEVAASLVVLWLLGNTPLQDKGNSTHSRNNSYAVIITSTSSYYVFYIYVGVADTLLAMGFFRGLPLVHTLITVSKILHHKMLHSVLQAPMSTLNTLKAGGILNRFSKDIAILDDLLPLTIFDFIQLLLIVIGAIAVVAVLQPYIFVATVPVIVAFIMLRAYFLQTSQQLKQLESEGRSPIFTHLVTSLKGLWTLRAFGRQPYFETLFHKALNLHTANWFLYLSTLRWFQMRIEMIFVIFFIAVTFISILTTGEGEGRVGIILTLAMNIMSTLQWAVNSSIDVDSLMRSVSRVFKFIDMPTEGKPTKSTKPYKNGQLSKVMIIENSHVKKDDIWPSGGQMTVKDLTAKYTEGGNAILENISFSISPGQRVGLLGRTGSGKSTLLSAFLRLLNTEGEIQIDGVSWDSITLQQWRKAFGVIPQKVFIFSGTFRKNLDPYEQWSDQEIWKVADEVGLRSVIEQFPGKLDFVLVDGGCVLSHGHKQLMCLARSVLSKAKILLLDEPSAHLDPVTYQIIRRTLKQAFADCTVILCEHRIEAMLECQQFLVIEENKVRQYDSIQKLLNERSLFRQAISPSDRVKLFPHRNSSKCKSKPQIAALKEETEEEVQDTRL
# Measurement Notes: Cell Surface Expression-Horse Radish Peroxidase (CSE-HRP) Assay
# Format: cell-based
# Setup Conditions: with co-corrector (2 μM of 3-[(2R,4R)-4-({[1-(2,2-difluoro-1,3-benzodioxol-5-yl)cyclopropyl]carbonyl}amino)-7-methoxy-3,4-dihydro-2H-chromen-2-yl]benzoic acid); read-out: EC50 (with co-corrector)
Measured Attribute: EC50

# example entries with known answers
Compound	Experimental Target	Reading
CC(C)(C)[C@H]1[C@H](Nc2cncc3ccccc23)[C@H](c2ccccc2)N(C(=O)C2CCCCC2)[C@@H]1C(=O)O [III-162]	F508delCFTR (Homo sapiens, UniProt P13569, DEL508-508)	1000 to 10000 nM
COc1ccc(C(C)(C)C)cc1CN[C@H]1[C@H](C(C)(C)C)[C@@H](C(=O)O)N(C(=O)C(C)Oc2cc(C)cc(C)c2)[C@H]1c1ccccc1 (stereo partly drawn) [III-190]	F508delCFTR (Homo sapiens, UniProt P13569, DEL508-508)	< 1000 nM
COc1ccc(C(C)(C)C)cc1CN[C@H]1[C@H](C(C)(C)C)[C@@H](C(=O)O)N(C(=O)C2CCCCC2)[C@H]1c1ccccc1OC(F)F [Example I-229]	F508delCFTR (Homo sapiens, UniProt P13569, DEL508-508)	< 1000 nM

Endpoint output: EC50 of COc1ccc(C(F)(F)F)cc1CN[C@H]1[C@H](C(C)(C)C)[C@@H](C(=O)O)N(C(=O)C2CCc3cc(C)ccc3O2)[C@H]1c1ccccc1 (stereo partly drawn) [II-397] . Value?
< 1000 nM

Endpoint output: EC50 of COc1ccccc1[C@@H]1[C@H](NCc2cccc3c2OC(F)(F)O3)[C@@H](C(C)(C)C)[C@H](C(=O)O)N1C(=O)C1CCCCC1 (racemic) [III-45] . Value?
1000 to 10000 nM

Endpoint output: EC50 of COc1ccc(C(F)(F)F)cc1CN[C@H]1[C@H](C(C)(C)C)[C@@H](C(=O)O)N(C(=O)[C@](OC)(c2ccccc2)C(F)(F)F)[C@H]1c1ccccc1 [III-100] . Value?
1000 to 10000 nM

Endpoint output: EC50 of COc1ccc(C(F)(F)F)cc1CN[C@H]1[C@H](C(C)(C)C)[C@@H](C(=O)O)N(C(=O)C2(C)CCCOC2)[C@H]1c1ccccc1N(C)C (mixture of isomers) [III-77] . Value?
1000 to 10000 nM

Endpoint output: EC50 of CC(C)(C)[C@H]1[C@H](Nc2cc3ccccc3cn2)[C@H](c2ccccc2)N(C(=O)C2CCCCC2)[C@@H]1C(=O)O [III-156] . Value?
1000 to 10000 nM

###

# Experimental Target: F508delCFTR (Homo sapiens, UniProt P13569, DEL508-508)
# Construct: expressed in transfected cells; host or cells: CFBE41o- human lung-derived epithelial cells (CFBE4lo-F508delCFTR-HRP), doxycycline-inducible
# Measurement Notes: Cell Surface Expression-Horse Radish Peroxidase (CSE-HRP) Assay
# Assay type: cell-based
# Setup Conditions: test compound without co-corrector; read-out: EC50 (without co-corrector)
Recorded measurements of EC50, one per entry

> print(dat)
                                   compound                       experimental.target  reading
1  CC(C)(C)NC(=O)c1ccc(N[C@H]2[C@H](C(C)(C)C)[C@@H](C(=O)O)N(C(=O)C3CCCCC3)[C@H]2c2ccccc2)nc1  F508delCFTR (Homo sapiens, UniProt P13569, DEL508-508)  > 10 µM

Endpoint output: EC50 of "COc1ccc(C(F)(F)F)cc1CN[C@@H]1[C@@H](C(C)(C)C)[C@H](C(=O)O)N(C(=O)[C@](OC)(c2ccccc2)C(F)(F)F)[C@@H]1c1ccccc1" . Value?
> 10 µM

Endpoint output: EC50 of "COc1ncc([Si](C)(C)C)cc1CN[C@H]1[C@H](C(C)(C)C)[C@@H](C(=O)O)N(C(=O)[C@@H]2CCCC(F)(F)C2)[C@H]1c1ccccc1" . Value?
< 1 µM

Endpoint output: EC50 of "COc1nc(C(C)(C)C)ccc1CN[C@H]1[C@H](C(C)(C)C)[C@@H](C(=O)O)N(C(=O)C2CCCCC2)[C@H]1c1cccnc1OC" . Value?
1 to 10 µM

Endpoint output: EC50 of "COc1nc2ccccc2cc1CN[C@H]1[C@H](C(C)(C)C)[C@@H](C(=O)O)N(C(=O)C2CCOCC2)[C@H]1c1ccccc1C(C)C" . Value?
1 to 10 µM

Endpoint output: EC50 of COc1ccc(C(F)(F)F)cc1CN[C@@H]1[C@@H](C(C)(C)C)[C@H](C(=O)O)N(C(=O)C2CCCCC2)[C@@H]1c1ccccc1 (racemic) . Value?
1 to 10 µM

###

# Experimental Target: F508delCFTR (Homo sapiens, UniProt P13569, DEL508-508)
# Construct: expressed in transfected cells; host or cells: CFBE41o- human lung-derived epithelial cells (CFBE4lo-F508delCFTR-HRP), doxycycline-inducible
# Measurement Notes: Cell Surface Expression-Horse Radish Peroxidase (CSE-HRP) Assay;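 on Maximum % activity (with co-corrector): co-corrector and positive control are both the same reference corrector at 2 µM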
# Format: cell-based
# Setup Conditions: with co-corrector (2 μM); maximum at any tested concentration, normalized to on-plate positive control
Measured Attribute: Maximum % activity (with co-corrector)

# example entries with known answers
Compound	Maximum % activity (with co-corrector)
COc1ccc(C(C)(C)C)cc1CN[C@H]1[C@H](C(C)(C)C)[C@@H](C(=O)O)N(C(=O)Cc2c[nH]cn2)[C@H]1c1ccccc1 [Example I-98]	++ (≥150 and <350)
CCOc1cc(N[C@H]2[C@H](C(C)(C)C)[C@@H](C(=O)O)N(C(=O)C3CCCCC3)[C@H]2c2ccccc2)nc2ccccc12 [III-152]	++ (≥150 and <350)
COc1ncc(C2CCC2)cc1CN[C@H]1[C@H](C(C)(C)C)[C@@H](C(=O)O)N(C(=O)OC(C)C)[C@H]1c1ccccc1C [Example 94]	+++ (≥350)
COc1ccc(-c2ccccc2)cc1CN[C@H]1[C@H](C(C)(C)C)[C@@H](C(=O)O)N(C(=O)[C@@H]2CCC[C@@H](OC)C2)[C@H]1c1ccccc1 [Example I-78]	+++ (≥350)
COc1ncc(C2CC2)cc1CN[C@H]1[C@H](C(C)(C)C)[C@@H](C(=O)O)N(C(=O)[C@@H]2CCCO2)[C@H]1c1ccccc1C(C)C [Example 101]	+++ (≥350)

For the record COc1ccc(C(C)(C)C)cc1CN[C@H]1[C@H](C(C)(C)C)[C@@H](C(=O)O)N(C(=O)C(OC)C2CCCCC2)[C@H]1c1ccccc1 (stereo partly drawn) [Example I-160] , what value of Maximum % activity (with co-corrector) is listed for F508delCFTR (Homo sapiens, UniProt P13569, DEL508-508)?
+++ (≥350)

For the record COc1ccc(C(F)(F)F)cc1CN[C@@H]1[C@@H](C(C)(C)C)[C@H](C(=O)O)N(C(=O)[C@H](OC)c2ccccc2)[C@@H]1c1ccccc1N(C)C [III-98] , what value of Maximum % activity (with co-corrector) is listed for F508delCFTR (Homo sapiens, UniProt P13569, DEL508-508)?
++ (≥150 and <350)

For the record CCOC(=O)N1[C@H](C(=O)O)[C@@H](C(C)(C)C)[C@H](NCc2cc(C(F)(F)F)cnc2OC)[C@@H]1c1ccccc1C(C)C [Example 97] , what value of Maximum % activity (with co-corrector) is listed for F508delCFTR (Homo sapiens, UniProt P13569, DEL508-508)?
+++ (≥350)

For the record COc1ncc(C(F)(F)F)cc1CN[C@H]1[C@H](C(C)(C)C)[C@@H](C(=O)O)N(C(=O)[C@@H]2CCCC(F)(F)C2)[C@H]1c1ccccc1 [Example 49] , what value of Maximum % activity (with co-corrector) is listed for F508delCFTR (Homo sapiens, UniProt P13569, DEL508-508)?
+++ (≥350)

For the record Cc1cc(C(F)(F)F)cc(N[C@H]2[C@H](C(C)(C)C)[C@@H](C(=O)O)N(C(=O)[C@H]3CCCCO3)[C@H]2c2cccnc2N(C)C)n1 [III-216] , what value of Maximum % activity (with co-corrector) is listed for F508delCFTR (Homo sapiens, UniProt P13569, DEL508-508)?
++ (≥150 and <350)

For the record COc1nc(C(C)(C)C)ccc1CN[C@H]1[C@H](C(C)(C)C)[C@@H](C(=O)O)N(C(=O)C2CCCC(OC)C2)[C@H]1c1ccccc1 (stereo partly drawn) [Example I-197] , what value of Maximum % activity (with co-corrector) is listed for F508delCFTR (Homo sapiens, UniProt P13569, DEL508-508)?
+++ (≥350)

Origin of measurements: patent US20180099931A1
